Attribution: patent US10294217B2

METHOD_DESCRIPTION: Rodent brain penetration study
Format: in vivo, Male Wistar rats
CONDITION_SUMMARY: male, Wistar, rat, oral; 3 mg/kg, p.o.; brain-plasma ratio; read-out: Single dose Rat Brain Penetration (Cb/Cp)
Recorded Kp by entry
QUANTITY_NAME: Kp

COMPOUND: O=C(N[C@H]1CCCC[C@@H]1O)c1cn(Cc2ccnc(Cl)c2)c2c(F)ccc(F)c12 [Example 6]
ENDPOINT_RESULT: 2.09

COMPOUND: Cn1cc(Cn2cc(C(=O)N[C@H]3CCCC[C@@H]3O)c3c(F)ccc(F)c32)cn1 [Example 5]
ENDPOINT_RESULT: 0.5

COMPOUND: O=C(N[C@H]1CCCC[C@@H]1O)c1cn(Cc2cc(F)ncc2F)c2c(F)ccc(F)c12 [Example 12]
ENDPOINT_RESULT: 1.64

COMPOUND: COc1ccc(Cn2cc(C(=O)N[C@H]3CCNC[C@H]3F)c3c(F)cccc32)cc1 (single isomer, unassigned; isomer-i) [Example 38]
ENDPOINT_RESULT: 1.03

COMPOUND: O=C(N[C@H]1CCCC[C@@H]1O)c1cn(Cc2ccncc2F)c2c(F)ccc(F)c12 [Example 10]
ENDPOINT_RESULT: 2.4

COMPOUND: COc1cccc(Cn2cc(C(=O)N[C@H]3CCNC[C@H]3F)c3c(F)cccc32)c1 (single isomer, unassigned; isomer-i) [Example 35]
ENDPOINT_RESULT: 0.72

COMPOUND: Cn1cc(Cn2cc(C(=O)N[C@H]3CCCC[C@@H]3O)c3c(F)cccc32)cn1 [Example 1]
ENDPOINT_RESULT: 0.3
